Neutralizing activity IC50 values by entry
Target: cynomolgus monkey EL (cynomolgus monkey)
Test: cell-based or functional assay
Your answer should be a plain number; it is taken to be in nM.

Worked set:
- binder: "h55A1-S1 (antibody, V domains shown, humanized) VH: QVQLVQSGSELKKPGASVKVSCKASGYTFTNYGMNWVRQAPGQGLEWMGWINTYSGVPTYAGDFKGRFVFSLDTSVSTAYLQISSLKAEDTAVYYCARRGYYGRRYFDVWGKGTTVTVSS VL: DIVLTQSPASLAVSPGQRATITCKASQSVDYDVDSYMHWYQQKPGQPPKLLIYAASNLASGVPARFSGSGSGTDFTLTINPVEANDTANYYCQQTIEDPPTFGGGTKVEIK"
  Neutralizing activity IC50 / nM: 1.6
- binder: "h53A11-S4 (antibody, V domains shown) VH: QVQLVQSGAEVKKPGASVKVSCKASGYTFTDYTMHWVRQAPGQRLEWMGGINPYYGGTTYNEKFKDRVTITRDTSASTAYMELSSLRSEDTAVYYCARGDYYGGSYNYWGQGTTVTVSS VL: EIVMTQSPATLSVSPGERATLSCRASQDISNSLHWYQQKPGQAPRLLIKYASQSISGIPARFSGSGSGTEFTLTISSLQSEDFAVYYCQQSNSWPYTFGQGTKLEIK"
  Neutralizing activity IC50 / nM: 12

Which Neutralizing activity IC50 value belongs to h16B3-S2 (antibody, V domains shown, humanized) VH: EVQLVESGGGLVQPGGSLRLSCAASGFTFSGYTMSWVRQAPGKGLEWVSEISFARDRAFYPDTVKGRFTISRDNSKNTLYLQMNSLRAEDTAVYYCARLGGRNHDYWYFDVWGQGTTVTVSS VL: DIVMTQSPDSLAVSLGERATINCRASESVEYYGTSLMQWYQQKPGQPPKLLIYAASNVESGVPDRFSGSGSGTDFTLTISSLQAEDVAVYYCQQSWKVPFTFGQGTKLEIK ?
1.9
